Cited source: paper PMC8347595

target: UniProtKB P14416; assay: Radioligand binding assay, [3H]-raclopride displacement; conditions: pKi D2, Table 1
Sequence (P14416 whole entry): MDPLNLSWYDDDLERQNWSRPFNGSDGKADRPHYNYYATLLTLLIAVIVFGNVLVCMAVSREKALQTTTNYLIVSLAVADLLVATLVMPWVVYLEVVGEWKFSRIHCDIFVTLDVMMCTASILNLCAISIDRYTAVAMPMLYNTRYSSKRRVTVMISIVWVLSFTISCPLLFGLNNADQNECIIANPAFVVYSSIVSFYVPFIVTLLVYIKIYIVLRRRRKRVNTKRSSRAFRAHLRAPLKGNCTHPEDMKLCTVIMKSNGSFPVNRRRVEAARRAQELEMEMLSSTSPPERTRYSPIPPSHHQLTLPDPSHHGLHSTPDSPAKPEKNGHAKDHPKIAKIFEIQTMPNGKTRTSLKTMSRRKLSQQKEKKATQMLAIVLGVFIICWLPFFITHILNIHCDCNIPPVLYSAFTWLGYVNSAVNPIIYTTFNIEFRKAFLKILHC
observation type: pKi
One number for each entry, as −log10 of the molar value.

Take a look at these entries with their results.
- given smiles: "Clc1ccc2[nH]cc(CCNCc3c[nH]c4ccccc34)c2c1"
  pKi: 5.61
- given smiles: "Brc1cccc2c(CNCCc3c[nH]c4ccccc34)c[nH]c12"
  pKi: 7.26
- given smiles: "COc1ccc2[nH]cc(CCNCc3c[nH]c4c(Cl)cccc34)c2c1"
  pKi: 5.63
- given smiles: "Clc1ccc2c(CCNCc3c[nH]c4ccccc34)c[nH]c2c1"
  pKi: 6.81

Shift focus to the following entry.
Recorded result, "Fc1ccc2c(CNCCc3c[nH]c4ccccc34)c[nH]c2c1" , pKi: 6.52
